- procedure text: AUC(0 to infinity) in Sprague-Dawley rat at 2 mg/kg, iv measured at 5 to 600 min by LC-MS/MS analysis
- Format: ADME, organism-based
- Design: time 5-600 min, dose 2 mg/kg, route iv
- condition: in vivo
assay endpoint: AUC(0-inf) (ng·h/mL)

>>> measured_result("CCC(=O)N1CCc2nc(Nc3ccc(C#N)cc3)nc(Oc3c(C)cc(C#N)cc3C)c2C1")
1740

###

selectivity ratio: recorded values
- procedure text: in vitro
- condition: human, MT4 cells
- Description: Selectivity index, ratio of CC50 for cytotoxicity against human MT4 cells to EC50 for antiviral activity against NNRTI-resistant HIV-1 harboring E138K mutant infected in human MT4 cells
assay endpoint: selectivity ratio

>>> measured_result("Cc1cc(C#N)cc(C)c1Oc1nc(Nc2ccc(C#N)cc2)nc2c1CNCC2")
3520
>>> measured_result("Cc1cc(C#N)cc(C)c1Oc1nc(Nc2ccc(C#N)cc2)nc2c1CN(Cc1ccccc1)CC2")
507
>>> measured_result("Cc1cc(C#N)cc(C)c1Oc1nc(Nc2ccc(C#N)cc2)nc2c1CN(S(=O)(=O)N(C)C)CC2")
2060
>>> measured_result("COc1cccc(C(=O)N2CCc3nc(Nc4ccc(C#N)cc4)nc(Oc4c(C)cc(C#N)cc4C)c3C2)c1")
144
>>> measured_result("Cc1cc(C#N)cc(C)c1Oc1nc(Nc2ccc(C#N)cc2)nc2c1CN(Cc1ccc(B(O)O)cc1)CC2")
211
>>> measured_result("Cc1cc(C#N)cc(C)c1Oc1nc(Nc2ccc(C#N)cc2)nc2c1CN(Cc1ccc(C(N)=O)cc1)CC2")
7560
>>> measured_result("COc1ccc(C(=O)N2CCc3nc(Nc4ccc(C#N)cc4)nc(Oc4c(C)cc(C#N)cc4C)c3C2)cc1")
682
>>> measured_result("Cc1cc(C#N)cc(C)c1Oc1nc(Nc2ccc(C#N)cc2)nc2c1CN(C(=O)c1cccc(F)c1)CC2")
152
>>> measured_result("Cc1cc(C#N)cc(C)c1Oc1nc(Nc2ccc(C#N)cc2)nc2c1CN(C(=O)c1ccc(F)cc1)CC2")
270
>>> measured_result("C=CC(=O)N1CCc2nc(Nc3ccc(C#N)cc3)nc(Oc3c(C)cc(C#N)cc3C)c2C1")
246

###

- procedure text: in vitro
- condition: human, MT4 cells
- Description: Selectivity index, ratio of CC50 for cytotoxicity against human MT4 cells to EC50 for antiviral activity against NNRTI-resistant HIV-1 harboring K103N mutant infected in human MT4 cells
assay endpoint: selectivity ratio

>>> measured_result("Cc1cc(C#N)cc(C)c1Oc1nc(Nc2ccc(C#N)cc2)nc2c1CN(Cc1ccc(S(C)(=O)=O)cc1)CC2")
"> 25400"
>>> measured_result("C=CC(=O)N1CCc2nc(Nc3ccc(C#N)cc3)nc(Oc3c(C)cc(C#N)cc3C)c2C1")
956
>>> measured_result("Cc1cc(C#N)cc(C)c1Oc1nc(Nc2ccc(C#N)cc2)nc2c1CN(C(=O)c1cccc(C(F)(F)F)c1)CC2")
"> 6090"
>>> measured_result("Cc1ccc(C(=O)N2CCc3nc(Nc4ccc(C#N)cc4)nc(Oc4c(C)cc(C#N)cc4C)c3C2)cc1")
"> 34000"
>>> measured_result("Cc1cc(C#N)cc(C)c1Oc1nc(Nc2ccc(C#N)cc2)nc2c1CN(C(=O)c1ccc([N+](=O)[O-])cc1)CC2")
"> 23400"
>>> measured_result("Cc1cc(C#N)cc(C)c1Oc1nc(Nc2ccc(C#N)cc2)nc2c1CN(Cc1ccccc1)CC2")
1890
>>> measured_result("Cc1cc(C#N)cc(C)c1Oc1nc(Nc2ccc(C#N)cc2)nc2c1CN(C(=O)c1ccc(C#N)cc1)CC2")
"> 14700"
>>> measured_result("Cc1cc(C#N)cc(C)c1Oc1nc(Nc2ccc(C#N)cc2)nc2c1CN(C(=O)c1ccc(F)cc1)CC2")
726

###

selectivity ratio: recorded values
- procedure text: in vitro
- condition: human, MT4 cells
- Description: Selectivity index, ratio of CC50 for cytotoxicity against human MT4 cells to EC50 for antiviral activity against NNRTI-resistant HIV-1 harboring Y181C mutant infected in human MT4 cells
assay endpoint: selectivity ratio

>>> measured_result("C=CC(=O)N1CCc2nc(Nc3ccc(C#N)cc3)nc(Oc3c(C)cc(C#N)cc3C)c2C1")
235
>>> measured_result("Cc1cc(C#N)cc(C)c1Oc1nc(Nc2ccc(C#N)cc2)nc2c1CN(Cc1ccc(C(N)=O)cc1)CC2")
2960
>>> measured_result("Cc1cc(C#N)cc(C)c1Oc1nc(Nc2ccc(C#N)cc2)nc2c1CNCC2")
435

###

- procedure text: Metabolic stability in human plasma assessed as compound remaining incubated for 120 mins by LC-MS/MS analysis
- Assay type: ADME, cell-free
- condition: read-out: Stability
remaining at 2 h: recorded values
assay endpoint: remaining at 2 h

>>> measured_result("CCC(=O)N1CCc2nc(Nc3ccc(C#N)cc3)nc(Oc3c(C)cc(C#N)cc3C)c2C1")
"97.1%"
>>> measured_result("Cc1cc(C#N)cc(C)c1Oc1nc(Nc2ccc(C#N)cc2)nc(N)c1Br")
"83.2%"

###

- procedure text: in vitro
- condition: human, MT4 cells
- Description: Selectivity index, ratio of CC50 for cytotoxicity against human MT4 cells to EC50 for antiviral activity against NNRTI-resistant HIV-1 harboring K103N and Y181C mutant infected in human MT4 cells
assay endpoint: selectivity ratio

>>> measured_result("Cc1cc(C#N)cc(C)c1Oc1nc(Nc2ccc(C#N)cc2)nc2c1CN(Cc1ccc(C(N)=O)cc1)CC2")
1180
>>> measured_result("C=CC(=O)N1CCc2nc(Nc3ccc(C#N)cc3)nc(Oc3c(C)cc(C#N)cc3C)c2C1")
81
>>> measured_result("Cc1cc(C#N)cc(C)c1Oc1nc(Nc2ccc(C#N)cc2)nc2c1CNCC2")
51

###

- procedure text: in vitro
- condition: human, MT4 cells
- Description: Selectivity index, ratio of CC50 for cytotoxicity against human MT4 cells to EC50 for antiviral activity against wildtype HIV-1 IIIB infected in human MT4 cells
Each record is given TRUE if its reported selectivity ratio is strictly below 3000. Records at or above 3000 are given FALSE.

>>> category_label("Cc1cc(C#N)cc(C)c1Oc1nc(Nc2ccc(C#N)cc2)nc2c1CN(Cc1ccc(B(O)O)cc1)CC2")
"TRUE"
>>> category_label("COc1ccc(C(=O)N2CCc3nc(Nc4ccc(C#N)cc4)nc(Oc4c(C)cc(C#N)cc4C)c3C2)cc1")
"FALSE"
>>> category_label("Cc1cc(C#N)cc(C)c1Oc1nc(Nc2ccc(C#N)cc2)nc2c1CN(C(=O)c1ccc(C#N)cc1)CC2")
"FALSE"
>>> category_label("C=CC(=O)N1CCc2nc(Nc3ccc(C#N)cc3)nc(Oc3c(C)cc(C#N)cc3C)c2C1")
"TRUE"
>>> category_label("Cc1cc(C#N)cc(C)c1Oc1nc(Nc2ccc(C#N)cc2)nc2c1CN(Cc1ccc(C(N)=O)cc1)CC2")
"FALSE"
>>> category_label("Cc1cc(C#N)cc(C)c1Oc1nc(Nc2ccc(C#N)cc2)nc2c1CN(C(=O)c1cccc(C(F)(F)F)c1)CC2")
"FALSE"
>>> category_label("Cc1cc(C#N)cc(C)c1Oc1nc(Nc2ccc(C#N)cc2)nc2c1CN(Cc1ccccc1)CC2")
"TRUE"
>>> category_label("Cc1cc(C#N)cc(C)c1Oc1nc(Nc2ccc(C#N)cc2)nc2c1CN(C(=O)c1ccc(C(F)(F)F)cc1)CC2")
"FALSE"

###

- procedure text: Cytotoxicity against human MT4 cells assessed as reduction in cell viability incubated for 5 days by MTT assay
- Type: toxicity, cell-based
- condition: time 5 day
Each record is given TRUE if its reported CC50 at 120 h is strictly below 30 µM. Records at or above 30 µM are given FALSE.

>>> category_label("Cc1cc(C#N)cc(C)c1Oc1nc(Nc2ccc(C#N)cc2)nc2c1CN(Cc1ccc(S(N)(=O)=O)cc1)CC2")
"FALSE"
>>> category_label("Cc1cc(C#N)cc(C)c1Oc1nc(Nc2ccc(C#N)cc2)nc2c1CN(C(=O)c1ccc(C(F)(F)F)cc1)CC2")
"FALSE"
>>> category_label("Cc1cc(C#N)cc(C)c1Oc1nc(Nc2ccc(C#N)cc2)nc2c1CN(Cc1ccccc1)CC2")
"FALSE"
>>> category_label("Cc1cc(C#N)cc(C)c1Oc1nc(Nc2ccc(C#N)cc2)nc2c1CN(C(=O)c1cccc([N+](=O)[O-])c1)CC2")
"FALSE"
>>> category_label("Cc1cc(C#N)cc(C)c1Oc1nc(Nc2ccc(C#N)cc2)nc2c1CN(C(=O)c1cccc(C#N)c1)CC2")
"FALSE"
>>> category_label("COC(=O)c1ccc(C(=O)N2CCc3nc(Nc4ccc(C#N)cc4)nc(Oc4c(C)cc(C#N)cc4C)c3C2)cc1")
"FALSE"
>>> category_label("Cc1cc(C#N)cc(C)c1Oc1nc(Nc2ccc(C#N)cc2)nc2c1CN(C(=O)c1ccc(F)cc1)CC2")
"TRUE"
>>> category_label("Cc1cc(C#N)cc(C)c1Oc1nc(Nc2ccc(C#N)cc2)nc2c1CN(C(=O)c1ccc(C#N)cc1)CC2")
"FALSE"
>>> category_label("Cc1cc(C#N)cc(C)c1Oc1nc(Nc2ccc(C#N)cc2)nc2c1CN(Cc1ccc(B(O)O)cc1)CC2")
"TRUE"
>>> category_label("Cc1cc(C#N)cc(C)c1Oc1nc(Nc2ccc(C#N)cc2)nc2c1CN(S(=O)(=O)N(C)C)CC2")
"FALSE"
>>> category_label("Cc1cc(C#N)cc(C)c1Oc1nc(Nc2ccc(C#N)cc2)nc2c1CN(C(=O)c1ccc([N+](=O)[O-])cc1)CC2")
"FALSE"
>>> category_label("COc1cccc(C(=O)N2CCc3nc(Nc4ccc(C#N)cc4)nc(Oc4c(C)cc(C#N)cc4C)c3C2)c1")
"TRUE"
>>> category_label("Cc1cc(C#N)cc(C)c1Oc1nc(Nc2ccc(C#N)cc2)nc2c1CN(Cc1ccc(C(N)=O)cc1)CC2")
"FALSE"
>>> category_label("Cc1cc(C#N)cc(C)c1Oc1nc(Nc2ccc(C#N)cc2)nc2c1CN(Cc1ccc(S(C)(=O)=O)cc1)CC2")
"FALSE"
>>> category_label("Cc1cc(C#N)cc(C)c1Oc1nc(Nc2ccc(C#N)cc2)nc2c1CN(C(=O)c1cccc(F)c1)CC2")
"TRUE"
>>> category_label("COc1ccc(C(=O)N2CCc3nc(Nc4ccc(C#N)cc4)nc(Oc4c(C)cc(C#N)cc4C)c3C2)cc1")
"FALSE"
